Please provide measured cytotoxicity at 70.5 h for the entries that follow.
Assay: Human HepG2 cell viability assay in 384 well format
Format: toxicity, cell-based
Set-up: dose 125 nL, time 70.5 hour; concentration not given beside the values
Conditions: HepG2 cells, read-out: Inhibition
Give the value, in units of %, as a plain number.

Req: # query: cytotoxicity at 70.5 h of entry CC(C)N(C)S(=O)(=O)N(Cc1cccs1)Cc1cccs1
Resp: -12.9

Req: # query: cytotoxicity at 70.5 h of entry COc1ccc(C2CCCN2Cc2cnn(C)c2)cc1 (stereo not given)
Resp: -9.31

Req: # query: cytotoxicity at 70.5 h of entry O=C(NCC1CC1)C1CCC2(CCN(C(=O)c3cnccn3)CC2)O1 (stereo not given)
Resp: 9.2

Req: # query: cytotoxicity at 70.5 h of entry COc1cccc(N2CCN(Cc3nccc(OC)c3OC)CC2=O)c1
Resp: -0.0493

Req: # query: cytotoxicity at 70.5 h of entry CC(O)c1cn(Cc2ccc(Cl)cc2Cl)nn1 (stereo not given)
Resp: -7.31

Req: # query: cytotoxicity at 70.5 h of entry COc1ccccc1CN(Cc1nc(Cc2ccccc2)no1)C1CC1
Resp: -10.7

Req: # query: cytotoxicity at 70.5 h of entry Cn1cnc2c1C(COCC1CCOCC1)CN(Cc1ccccn1)C2 (stereo not given)
Resp: -15.9

Req: # query: cytotoxicity at 70.5 h of entry COc1cc(NCc2ccc(Cl)cc2)c(-c2nn[nH]n2)cc1OC
Resp: -0.792

Req: # query: cytotoxicity at 70.5 h of entry Cc1cc(C)cc(OCCCn2nc3ccccn3c2=O)c1
Resp: -13.4

Req: # query: cytotoxicity at 70.5 h of entry CC1(C(=O)N2CCSCC2)CNCCO1 (stereo not given)
Resp: 11.8

Req: # query: cytotoxicity at 70.5 h of entry Cc1cn2c(CN(C)C(=O)c3cnc(N)c(Cl)c3)c(C)nc2s1
Resp: 11.9

Req: # query: cytotoxicity at 70.5 h of entry CN1CCN(c2nsc(-c3cccnc3)c2C#N)CC1
Resp: -4.14

Req: # query: cytotoxicity at 70.5 h of entry CC1=N[C@@]2(CC[C@@H]3CN(Cc4ccccc4F)C[C@@H]32)C(=O)N1C
Resp: -20

Req: # query: cytotoxicity at 70.5 h of entry COc1ccc([C@@H]2CN(c3cnccn3)C[C@H]2N(C)C)cc1
Resp: 22

Req: # query: cytotoxicity at 70.5 h of entry Cc1cc(N2CCc3cncnc3C2)n2nc(C(F)(F)F)nc2n1
Resp: -104

Req: # query: cytotoxicity at 70.5 h of entry Cc1cccnc1C(=O)N1CCCC(Cc2cncc3ccccc23)C1 (stereo not given)
Resp: -3.08

Req: # query: cytotoxicity at 70.5 h of entry COc1ccc(CN2CCN(CCn3ccnc3)CC2)cc1F
Resp: -13.3

Req: # query: cytotoxicity at 70.5 h of entry CN(C)Cc1cnc2n1CCN(C(=O)Cc1cccc(F)c1)CC2
Resp: 4.88

Req: # query: cytotoxicity at 70.5 h of entry Cc1ccc(C)c(C(=O)NC2CCC(N3C(=O)CCC3=O)CC2)c1 (stereo not given)
Resp: 3.79

Req: # query: cytotoxicity at 70.5 h of entry CCc1ccc(C(=O)N2CCC(c3nncn3CC)CC2)s1
Resp: -7.92

Req: # query: cytotoxicity at 70.5 h of entry Cc1cccc(C2CC(=O)Nc3c2c(=O)[nH]n3C(C)C)c1 (stereo not given)
Resp: -11.1

Req: # query: cytotoxicity at 70.5 h of entry O=C(Cc1cccs1)Nc1cnn(C2CCOC2)c1 (stereo not given)
Resp: 40.6

Req: # query: cytotoxicity at 70.5 h of entry O=C1NCCCCC1NC(=O)C1(c2cccc(C(F)(F)F)c2)CC1 (stereo not given)
Resp: 0.452

Req: # query: cytotoxicity at 70.5 h of entry CCOCC(=O)NCCc1ccc(I)s1
Resp: 18.6

Req: # query: cytotoxicity at 70.5 h of entry Cc1cnn(-c2ccc(S(=O)(=O)N(C)CC(C)(CO)CO)cc2F)c1
Resp: 17.1
